System: SK-MEL-5 melanoma
Experiment: NCI-60 one-dose screen, 48 h
Conditions: 10 µM unless noted
This is part of a sample that, as a whole, favours compounds with a hit. Of some 83,000 tested, about 20% had one in any assay. Activity calls are given as the source filed them. How the source made its calls: active means growth percent below 10; inactive means the rest.
// allowed return values: 1 for active, -1 for inactive

Which outcome did this test record for the molecule Nc1ccc(-c2ccc3ncnc(N4CCc5cc(F)c(Cl)cc54)c3c2)cn1 ? -1

// outcome(item) with item = CC(C)(C)OC(=O)N1C/C(=C\c2ccc(F)cc2)C(=O)/C(=C/c2ccc(F)cc2)C1 1

Which outcome did this test record for the molecule C#CCN(C)CCCOc1ccc(N(CC)C(=O)c2cc(C(C)C)c(O)cc2O)cc1Cl ? 1

How was N#Cc1cc(-c2ccnc(Nc3ccc(N4CCN(C5COC5)CC4)cc3)n2)ccc1N1CCCC1 classified in this test? -1

What is the recorded call for this molecule in the test? CCCCNc1ccc2c3c(cccc13)C(=O)N(NCC(O)COc1ccc3c(C)cc(=O)oc3c1)C2=O (centres undefined) -1

Could you kindly confirm the outcome this assay logged for Nc1nn2c(-c3cc4cc(Br)ccc4oc3=O)ccnc2c1N=Nc1ccccc1 ? 1

Hello, I am checking results. What call was entered for CCCCCCCCc1cccc(CC(=O)Nc2ccc(C)cc2C(=O)O)c1 ? -1

Any idea what this test logged for COc1c(B(O)O)cccc1-c1nc2ccc3cn[nH]c3c2c2c1CCCC2 ? -1

Please indicate how the test categorized O=C(CSc1nc2sc3c(c2c(=O)n1-c1ccc(Cl)cc1)CCCC3)NNC(=O)c1ccc(Br)cc1 . -1

Hi, sorry to bother you, what did the test record for COC(=O)c1cc(C(C)=O)n2c3ccccc3c3ccccc3c12 ? -1

Test call, this molecule: O=c1ccc(Cn2c(C(F)(F)F)cc3c(Cl)ncnc32)c[nH]1 1

So what was the verdict on N#C/C(=C/c1ccc(Cl)cc1)c1nnc(NC(=O)c2ccc(-n3c(=O)[nH]c4ccccc4c3=O)cc2)s1 in this test? -1

Hi, sorry to bother you, what did the test record for Cn1ncc2c(N)nc(Oc3ccccc3-c3ccccc3)nc21 ? 1

What outcome does the record of this test show for Cc1oc(-c2ccccc2)nc1CN[C@@H]1C[C@@H]2C[C@H]([C@H]1C)C2(C)C ? 1

Recorded test outcome, item CCOc1ccccc1[C@H]1C(C(=O)c2ccc(Cl)cc2)C2(N[C@@H]1c1ccccc1)C(=O)Nc1ccccc12 (some centres undefined) 1

Dear all, I need the recorded test outcome for Clc1ccc(CNc2nc(SCCN3CCOCC3)nc3c2cnn3CC(Cl)c2ccc(Br)cc2)cc1 (centres undefined) , thank you. -1

Please state the recorded outcome for this molecule: Cc1cccc(NCC(=O)N2CCN(c3ncnc4c3cnn4-c3ccccc3)CC2)c1 -1

Check the results log: what was the call for Cn1cc(-c2cc(N)n3nc(-c4c[nH]c5ccc(F)cc45)cc3n2)c2cc(Br)cnc21 ? -1

Hi, do you know how COc1cc(C2CC(c3ccc(C(F)(F)F)cc3)=Nc3c(N)nc(N)nc3N2)ccc1Oc1nc(Nc2ccc(F)cc2)nc(N(C)C)n1 (centres undefined) came out in this test? -1

----------
Test system: HCT-116 colon
Assay: NCI-60 one-dose screen, 48 h (100 = growth as untreated, 0 = no growth, -100 = all killed)
Settings: 10 µM unless noted
Compounds without any hit were thinned out: in the full panel of roughly 83,000, 20% have a hit.
Assign class by growth: not lower than 20% means yes (1); lower than 20% means no (0).

Hello, I need to know if Fc1ccc(F)c(CNc2nc(SCCN3CCOCC3)nc3c2cnn3CC(Cl)c2ccc(Br)cc2)c1 (stereo not given) has measured growth not below 20%. Thanks! no (0)

Hi team, for COc1ccc(OC)c(Cn2cc(C#N)c(N)c2C(=O)c2ccc(Br)cc2)c1 , is the recorded growth at or above 20%? yes (1)

Determine whether measured growth meets or exceeds 20% for S=C(Nc1ccccc1)Nc1ccc(OCc2nc3ccc(Cl)cc3[nH]2)cc1 yes (1)

Is the recorded value of growth equal to or greater than 20% for this compound? Clc1ccc(-c2nc3ccc(-c4nnc(SCc5ccccc5)o4)cc3[nH]2)cc1 no (0)

Does growth meet or surpass 20% for N/C(=N\c1nc2ccccc2s1)NC(=O)Nc1ccccc1[N+](=O)[O-] ? no (0)
